Molecular target: T1, human VEGF (human, UniProt P15692 207-395, biotinylated (site not stated))
T1 construct: Biotinylated human VEGF generated internally; also called hVEGF; hVEGF-biotin
T1 sequence: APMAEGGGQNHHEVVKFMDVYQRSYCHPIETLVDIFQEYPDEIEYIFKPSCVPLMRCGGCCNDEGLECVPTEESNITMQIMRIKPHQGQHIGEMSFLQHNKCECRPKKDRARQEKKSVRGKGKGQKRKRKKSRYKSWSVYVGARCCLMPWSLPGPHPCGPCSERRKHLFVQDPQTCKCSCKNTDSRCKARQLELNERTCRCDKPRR
Assay: Biacore SPR, hVEGF
RECORDED METRIC: kon
Please answer in the form of a number followed by its unit of measurement.

As a guide, the following entries are already answered.
| BINDER | RECORDED METRIC | RESULT |
| --- | --- | --- |
| NVS4 heavy chain variant N102K (Fab, V domains shown, CDR variant of NVS4) VH: EVQLVESGGGLVQPGGSLRLSCTASGFSLTDYYYMTWVRQAPGKGLEWVGFIDPDDDPYYATWAKGRFTISRDNSKNTLYLQMNSLRAEDTAVYYCAGGDHKSGWGLDIWGQGTLVTVSS VL: EIVMTQSPSTLSASVGDRVIITCQASEIIHSWLAWYQQKPGKAPKLLIYLASTLASGVPSRFSGSGSGAEFTLTISSLQPDDFATYYCQNVYLASTNGANFGQGTKLTVLK | kon | 4.77e+06 M⁻¹ s⁻¹ |
| HC1T (Fab, V domains shown, Tagged heavy chain CDR variant HC1 with NVS4 light chain) VH: EVQLVESGGGLVQPGGSLRLSCTASGFSLTSYYYMTWVRQAPGKGLEWVGFIDPQNNPYYATWAKGRFTISRDNSKNTLYLQMNSLRAEDTAVYYCAGGSHNSGWGLNIWGQGTLVTVSS VL: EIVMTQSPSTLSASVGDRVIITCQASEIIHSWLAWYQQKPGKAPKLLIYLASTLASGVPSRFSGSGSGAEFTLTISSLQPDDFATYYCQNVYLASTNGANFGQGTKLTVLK | kon | 9.65e+07 M⁻¹ s⁻¹ |
| HC2T (Fab, V domains shown, Tagged heavy chain CDR variant HC2 with NVS4 light chain) VH: EVQLVESGGGLVQPGGSLRLSCTASGFSLTNYYYMTWVRQAPGKGLEWVGFIDPQNDPYYATWAKGRFTISRDNSKNTLYLQMNSLRAEDTAVYYCAGGNHNSGWGLDIWGQGTLVTVSS VL: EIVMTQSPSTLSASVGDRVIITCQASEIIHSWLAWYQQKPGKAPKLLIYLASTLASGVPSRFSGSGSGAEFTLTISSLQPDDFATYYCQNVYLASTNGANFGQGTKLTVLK | kon | 7.8e+07 M⁻¹ s⁻¹ |
| NVS4 light chain variant T96R (Fab, V domains shown, CDR variant of NVS4) VH: EVQLVESGGGLVQPGGSLRLSCTASGFSLTDYYYMTWVRQAPGKGLEWVGFIDPDDDPYYATWAKGRFTISRDNSKNTLYLQMNSLRAEDTAVYYCAGGDHNSGWGLDIWGQGTLVTVSS VL: EIVMTQSPSTLSASVGDRVIITCQASEIIHSWLAWYQQKPGKAPKLLIYLASTLASGVPSRFSGSGSGAEFTLTISSLQPDDFATYYCQNVYLASRNGANFGQGTKLTVLK | kon | 5.6e+06 M⁻¹ s⁻¹ |
| NVS4 heavy chain variant D55N + D56N (Fab, V domains shown, CDR variant of NVS4) VH: EVQLVESGGGLVQPGGSLRLSCTASGFSLTDYYYMTWVRQAPGKGLEWVGFIDPNNDPYYATWAKGRFTISRDNSKNTLYLQMNSLRAEDTAVYYCAGGDHNSGWGLDIWGQGTLVTVSS VL: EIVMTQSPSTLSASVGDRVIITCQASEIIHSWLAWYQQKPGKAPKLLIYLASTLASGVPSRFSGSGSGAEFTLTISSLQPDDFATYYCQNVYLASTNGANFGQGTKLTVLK | kon | 8.82e+06 M⁻¹ s⁻¹ |
| NVS4 heavy chain variant Y59H (Fab, V domains shown, CDR variant of NVS4) VH: EVQLVESGGGLVQPGGSLRLSCTASGFSLTDYYYMTWVRQAPGKGLEWVGFIDPDDDPHYATWAKGRFTISRDNSKNTLYLQMNSLRAEDTAVYYCAGGDHNSGWGLDIWGQGTLVTVSS VL: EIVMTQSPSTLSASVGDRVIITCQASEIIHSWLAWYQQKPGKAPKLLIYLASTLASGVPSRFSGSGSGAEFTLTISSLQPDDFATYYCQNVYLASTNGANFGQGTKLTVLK | kon | 2.11e+06 M⁻¹ s⁻¹ |

# context switch: different binder, same kon
Prompt line: Which kon value is on record for NVS4 heavy chain variant Y34H (Fab, V domains shown, CDR variant of NVS4) VH: EVQLVESGGGLVQPGGSLRLSCTASGFSLTDYYHMTWVRQAPGKGLEWVGFIDPDDDPYYATWAKGRFTISRDNSKNTLYLQMNSLRAEDTAVYYCAGGDHNSGWGLDIWGQGTLVTVSS VL: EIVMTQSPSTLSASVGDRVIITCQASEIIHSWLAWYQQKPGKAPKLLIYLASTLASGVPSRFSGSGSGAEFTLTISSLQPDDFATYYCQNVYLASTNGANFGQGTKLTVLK ?
Response line: 2.97e+06 M⁻¹ s⁻¹

Each recorded value in this set is attributed to patent US20170290876A1.
